measurement target: Macaca fascicularis IL-36R extracellular domain expressed with a C-terminal myc-myc-hexahistidine tag (Macaca fascicularis)
experiment description: SPR (Biacore 4000), mAb captured on anti-human Fc, 25°C
property label: kon (M⁻¹ s⁻¹)
Only the number, expressed in M⁻¹ s⁻¹, is required.

Recorded kon (binder H4H14709P (antibody, human IgG4 S228P, kappa, V domains shown) VH: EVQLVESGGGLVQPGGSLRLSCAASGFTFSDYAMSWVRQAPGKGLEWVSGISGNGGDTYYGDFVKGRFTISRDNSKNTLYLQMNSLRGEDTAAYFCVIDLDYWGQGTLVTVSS VL: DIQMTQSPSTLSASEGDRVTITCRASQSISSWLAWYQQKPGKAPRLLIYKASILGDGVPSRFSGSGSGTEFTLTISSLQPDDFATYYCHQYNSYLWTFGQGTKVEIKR ): 28000
